Below, each of the molecules is paired with its reported MAO-A/MAO-B value.
assayed.system: Human recombinant MAO-A (Homo sapiens (Human), UniProt P21397)
Sequence (P21397 whole entry): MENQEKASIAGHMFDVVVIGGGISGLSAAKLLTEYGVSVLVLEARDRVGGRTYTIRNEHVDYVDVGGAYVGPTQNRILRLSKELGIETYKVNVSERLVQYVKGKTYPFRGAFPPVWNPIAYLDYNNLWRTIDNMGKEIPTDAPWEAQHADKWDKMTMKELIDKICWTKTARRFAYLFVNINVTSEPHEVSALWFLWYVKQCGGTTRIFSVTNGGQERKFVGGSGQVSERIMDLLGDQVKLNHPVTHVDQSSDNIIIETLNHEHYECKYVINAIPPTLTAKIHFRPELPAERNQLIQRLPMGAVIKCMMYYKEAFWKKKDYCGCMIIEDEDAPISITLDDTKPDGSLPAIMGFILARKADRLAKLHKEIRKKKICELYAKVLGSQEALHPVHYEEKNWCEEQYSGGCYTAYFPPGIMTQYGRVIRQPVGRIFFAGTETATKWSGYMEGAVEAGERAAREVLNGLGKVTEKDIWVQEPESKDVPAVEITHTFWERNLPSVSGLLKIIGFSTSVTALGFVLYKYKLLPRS
assay.overview: MAO enzymatic assay, MAO-B selectivity (MAO-A/MAO-B)
Type: biochemical
run.conditions: selectivity for MAO-B over MAO-A; values given as ranges

Some molecules with known MAO-A/MAO-B results, for comparison:
molecule	MAO-A/MAO-B
CCOC(=O)c1cnc2cc(OCc3ccc(F)cc3)ccc2c1 [Example 2]	>100-200
CCOC(=O)c1cnc2cc(OCc3cccc(OC)c3)ccc2c1 [Example 9]	>100-200
CCOC(=O)c1cnc2cc(OCc3ccc(F)c(F)c3)ccc2c1 [Example 14]	>200

q: What does the record list as MAO-A/MAO-B for CCOC(=O)c1cnc2cc(OCc3ccc(C(F)(F)F)cc3)ccc2c1 [Example 6] ?
a: >10-100

q: State the recorded MAO-A/MAO-B for this entry: CCOC(=O)c1cnc2cc(OCc3cccc(F)c3)ccc2c1 [Example 4]
a: 1-10

q: Look up MAO-A/MAO-B for this molecule: CCOC(=O)c1cnc2cc(OCc3ccc(C)cc3)ccc2c1 [Example 8]
a: >10-100

q: Any idea what its MAO-A/MAO-B is? The molecule is CCOC(=O)c1cnc2cc(OCc3ccc(F)c(C(F)(F)F)c3)ccc2c1 [Example 12]
a: >200

q: Given CCOC(=O)c1cnc2cc(OCc3ccc(Cl)cc3)ccc2c1 [Example 1] , state its recorded MAO-A/MAO-B.
a: >10-100

q: Given the entry CCOC(=O)c1cnc2cc(OCc3cc(F)cc(C(F)(F)F)c3)ccc2c1 [Example 13] , report its measured MAO-A/MAO-B.
a: >100-200

q: Which MAO-A/MAO-B is listed for CC(C)(O)c1cnc2cc(OCc3ccc(F)cc3)ccc2c1 [Example 27] ?
a: >200

q: Give its MAO-A/MAO-B value. Item: CCOC(=O)c1cnc2cc(OCc3ccc(OC)cc3)ccc2c1 [Example 10]
a: >10-100

q: What does the record list as MAO-A/MAO-B for CCOC(=O)c1cnc2cc(OCc3ccc([N+](=O)[O-])cc3)ccc2c1 [Example 11] ?
a: 1-10

* * *

assayed.system: Human recombinant MAO-A (Homo sapiens (Human))
assay.overview: MAO enzymatic assay, MAO-B selectivity (MAO-A/MAO-B)
Format: biochemical
run.conditions: selectivity for MAO-B over MAO-A; values given as ranges
Each entry below lists one item and its recorded MAO-A/MAO-B value.

compound	MAO-A/MAO-B
CCOC(=O)c1cnc2cc(OCc3cccc(C)c3)ccc2c1 [Example 7]	>100-200

q: Provide value of MAO-A/MAO-B for this record tested with Human recombinant MAO-A (Homo sapiens (Human)): CCOC(=O)c1cnc2cc(OCCc3cccc(F)c3)ccc2c1 [Example 24]
a: >10-100

q: I'm curious: which MAO-A/MAO-B was measured for CCOC(=O)c1cnc2cc(OCc3cccc(Cl)c3)ccc2c1 [Example 3] tested on Human recombinant MAO-A (Homo sapiens (Human))?
a: >10-100

q: Lookup: MAO-A/MAO-B / Human recombinant MAO-A (Homo sapiens (Human)) / CCOC(=O)c1cnc2cc(OCc3cc(F)c(F)c(F)c3)ccc2c1 [Example 16]
a: >200

q: // lookup MAO-A/MAO-B | system=Human recombinant MAO-A (Homo sapiens (Human)) | key= CCOC(=O)c1cnc2cc(OCCc3cccc(Cl)c3)ccc2c1 [Example 25]
a: >10-100

q: Value wanted: MAO-A/MAO-B (Human recombinant MAO-A (Homo sapiens (Human))) of entry CCOC(=O)c1cnc2cc(OCc3cccc(C(F)(F)F)c3)ccc2c1 [Example 5]
a: >100-200

* * *

Each record here notes measured MAO-A/MAO-B.
assayed.system: Human recombinant MAO-A (Homo sapiens (Human), UniProt P21397)
assay.overview: MAO enzymatic assay, MAO-B selectivity (MAO-A/MAO-B)
Type: biochemical
run.conditions: selectivity for MAO-B over MAO-A; values given as ranges

q: Given CCOC(=O)c1cnc2cc(OCc3cc(F)cc(F)c3)ccc2c1 [Example 15] , state its recorded MAO-A/MAO-B.
a: >200

q: # lookup: MAO-A/MAO-B of CCOC(=O)c1cnc2cc(OCc3ccc(F)c(Cl)c3)ccc2c1 [Example 17]
a: >100-200

q: Data request, read-out MAO-A/MAO-B, for CCOC(=O)c1cnc2cc(OCc3cccc([N+](=O)[O-])c3)ccc2c1 [Example 18]
a: >10-100
